- Test system: UACC-257 melanoma
- test: NCI tumour cell line growth inhibition, 48 h
# TGI annotations

[
  {
    "compound": "COC(=O)N1C[C@@]2(C=CC3(CC2)OCCO3)c2ccccc21",
    "assayed.target": "UACC-257 melanoma",
    "TGI": "> 100 µM"
  },
  {
    "compound": "O=C(CC1Sc2ccccc2NC1=O)Nc1cc(Cl)ccc1Cl (stereo not drawn)",
    "assayed.target": "UACC-257 melanoma",
    "TGI": "> 100 µM"
  },
  {
    "compound": "COc1cc2cc(Oc3ccc(NC(=O)Nc4ccc(Cl)c(C(F)(F)F)c4)cc3)c(C)nc2cc1OCCN1CCCCC1",
    "assayed.target": "UACC-257 melanoma",
    "TGI": "3.46 µM"
  },
  {
    "compound": "NC(=O)c1cc2ccccc2oc1=Nc1ccccc1",
    "assayed.target": "UACC-257 melanoma",
    "TGI": "> 100 µM"
  },
  {
    "compound": "O=C(CCN1CCCC1)Nc1ccc2c(NCc3ccc(F)cc3)c3ccccc3nc2c1",
    "assayed.target": "UACC-257 melanoma",
    "TGI": "3.54 µM"
  },
  {
    "compound": "Nc1ncnc2sc(=S)c3c(c12)CCC3",
    "assayed.target": "UACC-257 melanoma",
    "TGI": "> 100 µM"
  },
  {
    "compound": "CC1=C/C(=N\\OCC(=O)O)CC(c2ccc(C(C)C)cc2)C1 (stereo not drawn)",
    "assayed.target": "UACC-257 melanoma",
    "TGI": "> 100 µM"
  },
  {
    "compound": "C=C1C(=O)OC2CC3(C)C=CC(=O)C(=C)C3CC12 (stereo not drawn)",
    "assayed.target": "UACC-257 melanoma",
    "TGI": "3.1 µM"
  },
  {
    "compound": "C/C(CN1C(=O)c2ccccc2C1=O)=N\\NS(=O)(=O)c1ccc(Br)cc1",
    "assayed.target": "UACC-257 melanoma",
    "TGI": "> 100 µM"
  },
  {
    "compound": "COc1ccc2c(c1)CCC1C2CCC2(C)C1CCC2(O)CNC(=O)CCCCC1CCSS1 (stereo not drawn)",
    "assayed.target": "UACC-257 melanoma",
    "TGI": "> 100 µM"
  },
  {
    "compound": "Nc1ccn(C2CC(O)C(COP(O)(=S)OC3CC(n4ccc(N)nc4=O)OC3CO)O2)c(=O)n1 (stereo not drawn)",
    "assayed.target": "UACC-257 melanoma",
    "TGI": "> 100 µM"
  },
  {
    "compound": "Clc1cccc(Cl)c1C=NC12CC3CC(CC(C3)C1)C2",
    "assayed.target": "UACC-257 melanoma",
    "TGI": "> 10 µM"
  },
  {
    "compound": "COc1cc(/C=C\\c2ccccn2)cc(OC)c1OC",
    "assayed.target": "UACC-257 melanoma",
    "TGI": "> 100 µM"
  }
]

* * *

- Tested on: SW-620 colon
- test: NCI tumour cell line growth inhibition, 48 h
# TGI annotations

[
  {
    "molecule": "Fc1ccc(-c2nc3n(c2-c2ccncc2)CCS3)cc1",
    "TGI": "> 25 µM"
  },
  {
    "molecule": "COc1cc(/C=C\\c2ccccn2)cc(OC)c1OC",
    "TGI": "> 100 µM"
  },
  {
    "molecule": "C[C@]12CC[C@H]3[C@@H](CCC4=CC(=O)CC[C@@H]43)[C@@H]1CC[C@@H]2OC(=O)N(CCCl)N=O",
    "TGI": "26.7 µM"
  },
  {
    "molecule": "CN1CCc2c1nc(-c1ccccc1)c1c2N(C)CC1",
    "TGI": "> 100 µM"
  },
  {
    "molecule": "CC1Oc2cc3c(-c4c(O)cc(O)c5c(O)c6c(cc45)OC(C)C(C)C6=O)c(O)cc(O)c3c(O)c2C(=O)C1C (stereo unspecified)",
    "TGI": "1.52 µM"
  },
  {
    "molecule": "COc1cccc(OC(=O)c2ccccc2Nc2ccnc(C(F)(F)F)c2)c1",
    "TGI": "> 100 µM"
  },
  {
    "molecule": "O=C(O)c1c[nH]c2c(Sc3ccccc3)nccc2c1=O",
    "TGI": "> 100 µM"
  },
  {
    "molecule": "CC1CC2OC(=O)C3CC(O)CC(=C23)[C@@]12C[C@@H](c1ccoc1)OC2=O (stereo partly specified)",
    "TGI": "> 100 µM"
  },
  {
    "molecule": "N#Cc1ncc(/N=C/c2ccc(N(CCCl)CCCl)cc2)s1",
    "TGI": "> 100 µM"
  },
  {
    "molecule": "NC(=O)C(Nc1c(Cl)cccc1Cl)c1cc2cc(Br)ccc2nc1Cl (stereo unspecified)",
    "TGI": "> 100 µM"
  },
  {
    "molecule": "CCN1C(=O)N(CC)C2C1NN=c1s/c(=C3\\C(=O)N(C(C)C)c4ccccc43)c(=O)n12 (stereo unspecified)",
    "TGI": "> 100 µM"
  },
  {
    "molecule": "COc1ccc(/C=C2/C(C)=NN(c3cccc(Cl)c3)/C2=N/c2nc3ccccc3s2)cc1",
    "TGI": "52 µM"
  },
  {
    "molecule": "CC(C)(C(=O)NN)c1ccccc1",
    "TGI": "> 100 µM"
  },
  {
    "molecule": "CC1=C(C(=O)OCc2ccccc2)C(c2ccc3c(c2)OCO3)n2c(nc3ccccc32)N1 (stereo unspecified)",
    "TGI": "> 100 µM"
  },
  {
    "molecule": "CC1CC2C(=O)NC(=O)C2c2[nH]c3ccccc3c21 (stereo unspecified)",
    "TGI": "> 100 µM"
  },
  {
    "molecule": "COc1cc2c(/C=C3/C(=O)Nc4ccc(Cl)cc43)c(Cl)n(Cc3ccccc3)c2cc1C",
    "TGI": "> 100 µM"
  },
  {
    "molecule": "Cc1cc(N2CCCCC2)nc(N(CCNc2ccnc3cc(Cl)ccc23)Cc2ccco2)n1",
    "TGI": "3.08 µM"
  },
  {
    "molecule": "COc1cc2nc(Cl)nc(Nc3cccc(C(=O)/C=C/c4ccccc4)c3)c2cc1OC",
    "TGI": "> 100 µM"
  },
  {
    "molecule": "COC(=O)CCC(=O)N1Cc2cc(C)ccc2N(C(=O)CCC(=O)OC)Cc2cc(C)ccc21",
    "TGI": "> 100 µM"
  },
  {
    "molecule": "CC(=O)OC1c2ccccc2CC2(OC(C)=O)c3ccccc3C12 (stereo unspecified)",
    "TGI": "> 100 µM"
  },
  {
    "molecule": "CCOC(=O)/C(O)=C(/C=N\\C(=S)Nc1ccccc1Cl)C(=O)OCC",
    "TGI": "> 100 µM"
  }
]
